Study Target: T1, IL-12 p40 C177S variant (human, UniProt P29460 23-328)
T1 sequence: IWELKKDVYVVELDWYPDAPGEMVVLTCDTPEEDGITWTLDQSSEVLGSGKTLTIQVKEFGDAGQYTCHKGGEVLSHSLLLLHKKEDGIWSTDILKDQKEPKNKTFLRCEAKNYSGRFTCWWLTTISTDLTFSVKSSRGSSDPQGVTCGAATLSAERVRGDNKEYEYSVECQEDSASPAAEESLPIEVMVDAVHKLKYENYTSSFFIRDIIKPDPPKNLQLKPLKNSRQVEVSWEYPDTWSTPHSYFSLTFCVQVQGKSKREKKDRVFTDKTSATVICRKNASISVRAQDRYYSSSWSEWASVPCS
Test Protocol: BLI (Octet), p35 C74 variant against p40 C177S
Below: a set of entries, each annotated with reported Kd.
Respond with the bare value in nM.

1) IL-12 p35 C74K variant (other) RNLPVATPDPGMFPCLHHSQNLLRAVSNMLQKARQTLEFYPCTSEEIDHEDITKDKTSTVEACLPLELTKNESKLNSRETSFITNGSCLASRKTSFMMALCLSSIYEDLKMYQVEFKTMNAKLLMDPKRQIFLDQNMLAVIDELMQALNFNSETVPQKSSLEEPDFYKTKIKLCILLHAFRIRAVTIDRVMSYLNAS = 19.6
2) IL-12 p35 C74W variant (other) RNLPVATPDPGMFPCLHHSQNLLRAVSNMLQKARQTLEFYPCTSEEIDHEDITKDKTSTVEACLPLELTKNESWLNSRETSFITNGSCLASRKTSFMMALCLSSIYEDLKMYQVEFKTMNAKLLMDPKRQIFLDQNMLAVIDELMQALNFNSETVPQKSSLEEPDFYKTKIKLCILLHAFRIRAVTIDRVMSYLNAS = 27
3) IL-12 p35 C74D variant (other) RNLPVATPDPGMFPCLHHSQNLLRAVSNMLQKARQTLEFYPCTSEEIDHEDITKDKTSTVEACLPLELTKNESDLNSRETSFITNGSCLASRKTSFMMALCLSSIYEDLKMYQVEFKTMNAKLLMDPKRQIFLDQNMLAVIDELMQALNFNSETVPQKSSLEEPDFYKTKIKLCILLHAFRIRAVTIDRVMSYLNAS = 57.1

Form field: reported Kd of IL-12 p35 C74Y variant (other) RNLPVATPDPGMFPCLHHSQNLLRAVSNMLQKARQTLEFYPCTSEEIDHEDITKDKTSTVEACLPLELTKNESYLNSRETSFITNGSCLASRKTSFMMALCLSSIYEDLKMYQVEFKTMNAKLLMDPKRQIFLDQNMLAVIDELMQALNFNSETVPQKSSLEEPDFYKTKIKLCILLHAFRIRAVTIDRVMSYLNAS
23.2

The origin of these recorded values is patent US20220340678A1.
